- measurement_protocol: Metabolic stability in human liver microsomes after 1 hrs in presence of NADPH by HPLC analysis
- Type: ADME, Microsome
- protocol_conditions: read-out: Stability
quantity_measured: remaining at 1 h (%)

- CCN(CC)/[N+]([O-])=N/OCOC(=O)/C=C/c1ccc(OC(=O)OCN2C(=O)SC(Cc3ccc(OCCN(C)c4ccccn4)cc3)C2=O)c(OC)c1 (stereo unspecified): 89.9

---

- target_or_test_system: hERG (KCNH2) (Homo sapiens)
- Sequence (Q12809 whole entry): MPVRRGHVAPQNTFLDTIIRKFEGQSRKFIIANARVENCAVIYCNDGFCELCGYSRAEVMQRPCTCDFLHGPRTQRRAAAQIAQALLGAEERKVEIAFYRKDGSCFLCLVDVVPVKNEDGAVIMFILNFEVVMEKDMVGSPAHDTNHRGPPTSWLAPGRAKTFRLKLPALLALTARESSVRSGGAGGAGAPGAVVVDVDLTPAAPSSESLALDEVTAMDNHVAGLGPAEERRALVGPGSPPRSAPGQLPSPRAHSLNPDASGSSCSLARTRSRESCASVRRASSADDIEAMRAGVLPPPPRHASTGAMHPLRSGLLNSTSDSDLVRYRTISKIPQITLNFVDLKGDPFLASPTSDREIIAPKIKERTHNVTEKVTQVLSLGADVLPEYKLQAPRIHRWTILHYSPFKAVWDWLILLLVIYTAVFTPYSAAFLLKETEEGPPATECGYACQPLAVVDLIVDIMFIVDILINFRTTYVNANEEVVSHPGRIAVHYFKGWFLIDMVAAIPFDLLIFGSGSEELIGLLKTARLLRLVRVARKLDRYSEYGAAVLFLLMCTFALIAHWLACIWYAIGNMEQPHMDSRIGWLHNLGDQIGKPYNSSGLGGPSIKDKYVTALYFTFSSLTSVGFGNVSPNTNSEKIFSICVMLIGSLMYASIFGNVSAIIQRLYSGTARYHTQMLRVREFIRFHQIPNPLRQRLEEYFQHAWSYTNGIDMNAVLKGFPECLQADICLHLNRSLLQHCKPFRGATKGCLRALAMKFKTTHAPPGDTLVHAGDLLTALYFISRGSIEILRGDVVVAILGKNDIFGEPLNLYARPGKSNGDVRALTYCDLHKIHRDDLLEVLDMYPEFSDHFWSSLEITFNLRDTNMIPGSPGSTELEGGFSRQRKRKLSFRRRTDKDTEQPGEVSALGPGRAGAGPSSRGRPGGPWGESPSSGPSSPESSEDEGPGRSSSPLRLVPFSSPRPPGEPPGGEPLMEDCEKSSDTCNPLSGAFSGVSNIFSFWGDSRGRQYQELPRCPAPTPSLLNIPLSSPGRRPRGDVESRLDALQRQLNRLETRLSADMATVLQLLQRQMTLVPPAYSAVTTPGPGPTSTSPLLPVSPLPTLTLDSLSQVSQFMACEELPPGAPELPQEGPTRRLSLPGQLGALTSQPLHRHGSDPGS
- measurement_protocol: Inhibition of human ERG expressed in CHO cells at 40 uM by patch clamp assay relative to control
- Format: cell-based
- protocol_conditions: CHO cells that express hERG
quantity_measured: inhibition at 40 µM (%)

* CN(CCOc1ccc(CC2SC(=O)NC2=O)cc1)c1ccccn1 (configuration not stated) | 57.9
* CCN(CC)/[N+]([O-])=N/OCOC(=O)/C=C/c1ccc(OC(=O)OCN2C(=O)SC(Cc3ccc(OCCN(C)c4ccccn4)cc3)C2=O)c(OC)c1 (configuration not stated) | 39.5
